In this section, each of the binders is paired with its reported IC50 of cytotoxicity (MTS viability), HCC2429 cells, repeat 2.
tested_system: full-length human Notch3 expressed on the cell surface (human, UniProt Q9UM47 40-2321)
Sequence (Q9UM47 40-2321): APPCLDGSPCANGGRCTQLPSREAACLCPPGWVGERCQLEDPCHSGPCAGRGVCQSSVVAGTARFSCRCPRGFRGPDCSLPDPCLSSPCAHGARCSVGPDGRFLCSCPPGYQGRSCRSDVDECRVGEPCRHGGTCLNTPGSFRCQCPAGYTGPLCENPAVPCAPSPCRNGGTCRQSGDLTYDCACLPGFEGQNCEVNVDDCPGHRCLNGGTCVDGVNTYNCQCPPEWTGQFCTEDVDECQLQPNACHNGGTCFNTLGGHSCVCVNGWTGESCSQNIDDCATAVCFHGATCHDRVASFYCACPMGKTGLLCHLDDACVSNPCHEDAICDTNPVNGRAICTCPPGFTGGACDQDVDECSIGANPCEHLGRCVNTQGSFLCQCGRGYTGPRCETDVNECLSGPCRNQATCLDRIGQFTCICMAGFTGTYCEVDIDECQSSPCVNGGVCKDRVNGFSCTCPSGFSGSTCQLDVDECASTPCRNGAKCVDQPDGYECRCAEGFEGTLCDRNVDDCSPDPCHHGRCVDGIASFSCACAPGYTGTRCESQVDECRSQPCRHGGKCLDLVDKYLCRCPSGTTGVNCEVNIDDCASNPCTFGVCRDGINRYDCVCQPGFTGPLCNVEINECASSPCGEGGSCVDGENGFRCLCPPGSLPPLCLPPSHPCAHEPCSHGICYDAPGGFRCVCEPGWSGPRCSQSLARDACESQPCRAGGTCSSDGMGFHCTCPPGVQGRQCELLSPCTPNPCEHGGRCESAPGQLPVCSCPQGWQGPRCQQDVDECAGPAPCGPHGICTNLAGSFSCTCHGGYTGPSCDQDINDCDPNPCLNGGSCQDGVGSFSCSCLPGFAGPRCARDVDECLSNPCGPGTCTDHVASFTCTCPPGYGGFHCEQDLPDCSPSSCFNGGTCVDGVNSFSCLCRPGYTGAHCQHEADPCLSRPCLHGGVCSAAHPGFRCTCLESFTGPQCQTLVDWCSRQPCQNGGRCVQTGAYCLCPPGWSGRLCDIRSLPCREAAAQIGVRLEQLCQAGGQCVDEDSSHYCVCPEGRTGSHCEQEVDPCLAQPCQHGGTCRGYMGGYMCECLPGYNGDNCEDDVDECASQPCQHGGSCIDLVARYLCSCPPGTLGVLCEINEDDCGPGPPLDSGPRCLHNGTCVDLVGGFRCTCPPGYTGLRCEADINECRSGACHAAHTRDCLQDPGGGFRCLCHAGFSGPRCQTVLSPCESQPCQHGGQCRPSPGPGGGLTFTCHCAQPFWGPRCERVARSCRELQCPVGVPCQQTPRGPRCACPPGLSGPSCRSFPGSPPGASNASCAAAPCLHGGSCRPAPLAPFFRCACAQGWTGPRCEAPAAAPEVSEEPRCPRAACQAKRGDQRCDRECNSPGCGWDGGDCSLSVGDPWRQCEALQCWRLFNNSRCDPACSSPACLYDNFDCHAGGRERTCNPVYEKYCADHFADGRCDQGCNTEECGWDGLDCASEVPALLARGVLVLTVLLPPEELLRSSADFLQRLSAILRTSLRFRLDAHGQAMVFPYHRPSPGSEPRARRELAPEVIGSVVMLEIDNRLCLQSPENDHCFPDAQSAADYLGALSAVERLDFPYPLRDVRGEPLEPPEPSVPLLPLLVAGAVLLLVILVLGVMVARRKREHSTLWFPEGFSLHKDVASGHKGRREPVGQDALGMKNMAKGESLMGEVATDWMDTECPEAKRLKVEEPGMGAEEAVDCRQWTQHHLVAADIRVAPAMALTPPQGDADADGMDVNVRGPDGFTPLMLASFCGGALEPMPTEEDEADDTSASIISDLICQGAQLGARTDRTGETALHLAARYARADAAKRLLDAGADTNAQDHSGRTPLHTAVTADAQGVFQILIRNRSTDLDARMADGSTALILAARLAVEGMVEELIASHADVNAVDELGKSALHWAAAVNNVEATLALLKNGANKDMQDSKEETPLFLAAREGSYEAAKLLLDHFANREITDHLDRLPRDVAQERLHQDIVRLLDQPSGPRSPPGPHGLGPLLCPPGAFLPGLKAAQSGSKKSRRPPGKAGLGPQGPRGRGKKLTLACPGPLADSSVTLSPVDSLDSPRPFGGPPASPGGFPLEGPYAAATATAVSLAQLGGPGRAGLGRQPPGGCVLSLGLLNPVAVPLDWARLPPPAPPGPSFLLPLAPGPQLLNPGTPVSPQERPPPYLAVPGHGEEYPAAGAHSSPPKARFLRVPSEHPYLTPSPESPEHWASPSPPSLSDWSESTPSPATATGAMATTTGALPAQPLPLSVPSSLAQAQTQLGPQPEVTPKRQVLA
assay_overview: cell-based or functional assay
Value expressed in ng Ab/mL; do not type the unit.

Worked examples, 3 binders total:
hu75-vc6780 (Notch3-75-v1913-hG1-(C)_mcValCitPABC-#112) (antibody, human IgG1, kappa, V domains shown, vc6780 linker-payload on cysteine residues after partial reduction; sites not specified, Antibody-drug conjugate of hu75) VH: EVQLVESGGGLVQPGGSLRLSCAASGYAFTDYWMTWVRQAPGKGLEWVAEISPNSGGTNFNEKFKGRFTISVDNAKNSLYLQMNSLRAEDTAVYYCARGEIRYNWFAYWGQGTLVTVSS VL: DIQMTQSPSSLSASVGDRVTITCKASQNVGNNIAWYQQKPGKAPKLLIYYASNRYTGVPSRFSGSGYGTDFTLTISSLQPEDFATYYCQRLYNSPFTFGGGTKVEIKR | 630
hu28-vc0101 (Notch3-28-v1010-hG1-(C)_mcValCitPABC-#54) (antibody, human IgG1, kappa, V domains shown, vc0101 linker-payload on cysteine residues after partial reduction; sites not specified, Antibody-drug conjugate of hu28) VH: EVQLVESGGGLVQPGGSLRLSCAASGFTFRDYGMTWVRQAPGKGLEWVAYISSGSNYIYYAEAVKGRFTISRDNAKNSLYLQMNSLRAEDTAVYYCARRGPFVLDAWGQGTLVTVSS VL: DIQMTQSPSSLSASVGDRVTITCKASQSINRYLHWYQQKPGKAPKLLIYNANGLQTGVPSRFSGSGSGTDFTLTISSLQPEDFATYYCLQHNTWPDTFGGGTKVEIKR | 2940
hu28-vc6780 (Notch3-28-v1010-hG1-(C)_mcValCitPABC-#112) (antibody, human IgG1, kappa, V domains shown, vc6780 linker-payload on cysteine residues after partial reduction; sites not specified, Antibody-drug conjugate of hu28) VH: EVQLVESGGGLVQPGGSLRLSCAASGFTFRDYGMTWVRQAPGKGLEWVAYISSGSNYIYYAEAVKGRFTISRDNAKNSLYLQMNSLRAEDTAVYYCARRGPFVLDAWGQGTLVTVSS VL: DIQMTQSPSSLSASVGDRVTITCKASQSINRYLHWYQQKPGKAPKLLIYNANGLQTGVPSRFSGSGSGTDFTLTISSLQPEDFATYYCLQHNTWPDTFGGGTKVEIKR | 2050

API: the following record is the query input.
I have this binder here, hu75-vc0101 (Notch3-75-v1913-hG1-(C)_mcValCitPABC-#54) (antibody, human IgG1, kappa, V domains shown, vc0101 linker-payload on cysteine residues after partial reduction; sites not specified, Antibody-drug conjugate of hu75) VH: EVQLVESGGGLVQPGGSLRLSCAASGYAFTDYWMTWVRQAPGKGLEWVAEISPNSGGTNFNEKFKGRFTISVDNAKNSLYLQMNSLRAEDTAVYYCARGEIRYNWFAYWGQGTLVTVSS VL: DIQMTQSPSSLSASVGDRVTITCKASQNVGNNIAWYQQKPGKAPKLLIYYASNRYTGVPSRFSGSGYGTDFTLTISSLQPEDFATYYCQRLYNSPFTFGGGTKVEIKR , and I need its recorded IC50 of cytotoxicity (MTS viability), HCC2429 cells, repeat 2. 3300

Hello, the source for this data is patent US20140127211A1, in case you need it.
